Test: circular dichroism
Details: 10 mM Na phosphate; pH 7.4; 25 °C; 100 uM
Bridge positions count the residues as written; N and C are the ends. Peptide text beside a SMILES is read from it.
Exercise: for every item that follows, state its recorded helicity.
Give bare numbers, in %.

Look over these answered cases.
- Compound: "CC(=O)N[C@@H](CC(=O)O)C(=O)N[C@@H](CCCCN)C(=O)N[C@H]1CCCCNC(=O)C[C@@H](C(=O)N[C@@H](CCC(=O)O)C(=O)N[C@@H](CC(=O)O)C(=O)N[C@H]2CCCCNC(=O)C[C@@H](C(N)=O)NC(=O)[C@H](CCC(N)=O)NC(=O)[C@H](Cc3ccc(O)cc3)NC(=O)[C@H](Cc3ccccc3)NC2=O)NC(=O)[C@H](CCC(=O)O)NC(=O)[C@H](Cc2c[nH]cn2)NC(=O)[C@H](CC(N)=O)NC1=O (Ac-DKKNHEDEDKFYQD-NH2; lactam 3-7, 10-14)"
  helicity, %: 25.2
- Compound: "CC(=O)N[C@@H](Cc1c[nH]cn1)C(=O)N[C@@H](CCC(=O)O)C(=O)N[C@H]1CCCCNC(=O)C[C@@H](C(=O)N[C@@H](Cc2ccc(O)cc2)C(=O)N[C@@H](CCC(N)=O)C(N)=O)NC(=O)[C@H](CC(C)C)NC(=O)[C@H](CC(=O)O)NC(=O)[C@H](CCC(=O)O)NC1=O [peptide 4] (Ac-HEKEDLDYQ-NH2; lactam 3-7)"
  helicity, %: 55.5

Next compound, please.
helicity in this record for CC(=O)N1CCC[C@H]1C(=O)N[C@@H](Cc1c[nH]cn1)C(=O)N[C@@H](CCC(=O)O)C(=O)N[C@H]1CCCCNC(=O)C[C@@H](C(=O)N[C@@H](Cc2ccc(O)cc2)C(=O)N[C@@H](CCC(N)=O)C(N)=O)NC(=O)[C@H](CC(C)C)NC(=O)[C@H](CC(=O)O)NC(=O)[C@H](CCC(=O)O)NC1=O (Ac-PHEKEDLDYQ-NH2; lactam 4-8) : 56.7

----------
Assay: in vitro
Conditions: rat, plasma
Bridge positions count the residues as written; N and C are the ends. Square brackets hold non-standard residues; d marks the D form. Peptide text beside a SMILES is read from it. S5 = C=CCCC[C@](C)(N)C(=O)O
Exercise: for every item that follows, state its recorded half-life.

Look over these answered cases.
- Molecule: "CC(=O)N[C@@H](CC(=O)O)C(=O)N[C@@H](CCCCN)C(=O)N[C@H]1CCCCNC(=O)C[C@@H](C(=O)N[C@@H](CCC(=O)O)C(=O)N[C@@H](CC(=O)O)C(N)=O)NC(=O)[C@H](CCC(=O)O)NC(=O)[C@H](Cc2c[nH]cn2)NC(=O)[C@H](CC(N)=O)NC1=O [compound 3] (Ac-DKKNHEDED-NH2; lactam 3-7)"
  half-life: "2.9 h"
- Molecule: "CC(=O)N[C@@H](CC(=O)O)C(=O)N[C@@H](CCCCN)C(=O)N[C@@]1(C)CCC/C=C\\CCC[C@@](C)(C(=O)N[C@@H](CCC(=O)O)C(=O)N[C@@H](CC(=O)O)C(N)=O)NC(=O)[C@H](CCC(=O)O)NC(=O)[C@H](Cc2c[nH]cn2)NC(=O)[C@H](CC(N)=O)NC1=O [peptide 10] (Ac-DK[S5]NHE[S5]ED-NH2; staple (Z) 3-7)"
  half-life: "4 h"

Please give half-life for each item listed below.
1. CC(=O)N[C@@H](Cc1c[nH]cn1)C(=O)N[C@@H](CCC(=O)O)C(=O)N[C@H]1CCCCNC(=O)C[C@@H](C(=O)N[C@@H](Cc2ccc(O)cc2)C(=O)N[C@@H](CCC(N)=O)C(N)=O)NC(=O)[C@H](CC(C)C)NC(=O)[C@H](CC(=O)O)NC(=O)[C@H](CCC(=O)O)NC1=O [peptide 4] (Ac-HEKEDLDYQ-NH2; lactam 3-7)
2. CC(=O)N[C@@H](Cc1c[nH]cn1)C(=O)N[C@@H](CCC(=O)O)C(=O)N[C@@]1(C)CCC/C=C/CCC[C@@](C)(C(=O)N[C@@H](Cc2ccc(O)cc2)C(=O)N[C@@H](CCC(N)=O)C(N)=O)NC(=O)[C@H](CC(C)C)NC(=O)[C@H](CC(=O)O)NC(=O)[C@H](CCC(=O)O)NC1=O [peptide 11] (Ac-HE[S5]EDL[S5]YQ-NH2; staple (E) 3-7)

1: 5 h; 2: 6.8 h

----------
Assay: circular dichroism
Details: 10 mM Na phosphate; pH 7.4; 25 °C; 100 uM
Bridge positions count the residues as written; N and C are the ends. Square brackets hold non-standard residues; d marks the D form. Peptide text beside a SMILES is read from it. S5 = C=CCCC[C@](C)(N)C(=O)O
Exercise: for every item that follows, state its recorded helicity.
Answers are plain numbers, in %.

Look over these answered cases.
- Compound: "CC(=O)N[C@@H](CC(=O)O)C(=O)N[C@@H](CCCCN)C(=O)N[C@H]1CCCCNC(=O)C[C@@H](C(=O)N[C@@H](CCC(=O)O)C(=O)N[C@@H](CC(=O)O)C(N)=O)NC(=O)[C@H](CCC(=O)O)NC(=O)[C@H](Cc2c[nH]cn2)NC(=O)[C@H](CC(N)=O)NC1=O [compound 3] (Ac-DKKNHEDED-NH2; lactam 3-7)"
  helicity (%): 49.9
- Compound: "CC(=O)N[C@@H](CC(=O)O)C(=O)N[C@@H](CCCCN)C(=O)N[C@@H]1Cc2cn(nn2)CCCC[C@@H](C(=O)N[C@@H](CCC(=O)O)C(=O)N[C@@H](CC(=O)O)C(N)=O)NC(=O)[C@H](CCC(=O)O)NC(=O)[C@H](Cc2c[nH]cn2)NC(=O)[C@H](CC(N)=O)NC1=O"
  helicity (%): 5.2

Next compound, please.
helicity in this record for C=CCCC[C@](C)(NC(=O)[C@H](CC(C)C)NC(=O)[C@H](CC(=O)O)NC(=O)[C@H](CCC(=O)O)NC(=O)[C@](C)(CCCC=C)NC(=O)[C@H](CCC(=O)O)NC(=O)[C@H](Cc1c[nH]cn1)NC(C)=O)C(=O)N[C@@H](Cc1ccc(O)cc1)C(=O)N[C@@H](CCC(N)=O)C(N)=O (Ac-HE[S5]EDL[S5]YQ-NH2) : 11

----------
Assay: circular dichroism
Conditions: 10 mM Na phosphate; pH 7.4; 25 °C; 100 uM
Bridge positions count the residues as written; N and C are the ends. Square brackets hold non-standard residues; d marks the D form. Peptide text beside a SMILES is read from it. S5 = C=CCCC[C@](C)(N)C(=O)O
Exercise: for every item that follows, state its recorded helicity.
Give bare numbers, in %.

Look over these answered cases.
- Molecule: "CC(=O)N[C@@H](CC(=O)O)C(=O)N[C@@H](CCCCN)C(=O)N[C@H]1CSCc2ccc(cc2)CSC[C@@H](C(=O)N[C@@H](CCC(=O)O)C(=O)N[C@@H](CC(=O)O)C(N)=O)NC(=O)[C@H](CCC(=O)O)NC(=O)[C@H](Cc2c[nH]cn2)NC(=O)[C@H](CC(N)=O)NC1=O"
  Unit of measurement: "%"
  helicity: 5
- Molecule: "CC(=O)N[C@@H](Cc1c[nH]cn1)C(=O)N[C@@H](CCC(=O)O)C(=O)N[C@H]1CC(=O)NCCCC[C@@H](C(=O)N[C@@H](Cc2ccc(O)cc2)C(=O)N[C@@H](CCC(N)=O)C(N)=O)NC(=O)[C@H](CC(C)C)NC(=O)[C@H](CC(=O)O)NC(=O)[C@H](CCC(=O)O)NC1=O (Ac-HEDEDLKYQ-NH2; lactam 3-7)"
  Unit of measurement: "%"
  helicity: 35.1
- Molecule: "CC(=O)N[C@@H](CC(=O)O)C(=O)N[C@@H](CCCCN)C(=O)N[C@@]1(C)CCC/C=C\\CCC[C@@](C)(C(=O)N[C@@H](CCC(=O)O)C(=O)N[C@@H](CC(=O)O)C(N)=O)NC(=O)[C@H](CCC(=O)O)NC(=O)[C@H](Cc2c[nH]cn2)NC(=O)[C@H](CC(N)=O)NC1=O [peptide 10] (Ac-DK[S5]NHE[S5]ED-NH2; staple (Z) 3-7)"
  Unit of measurement: "%"
  helicity: 68.9
- Molecule: "CC(=O)N[C@@H](CC(=O)O)C(=O)N[C@@H](CCCCN)C(=O)N[C@H]1Cn2cc(nn2)CCc2cn(nn2)C[C@@H](C(=O)N[C@@H](CCC(=O)O)C(=O)N[C@@H](CC(=O)O)C(N)=O)NC(=O)[C@H](CCC(=O)O)NC(=O)[C@H](Cc2c[nH]cn2)NC(=O)[C@H](CC(N)=O)NC1=O"
  Unit of measurement: "%"
  helicity: 8.2
- Molecule: "CC(=O)N[C@@H](Cc1c[nH]cn1)C(=O)N[C@@H](CCC(=O)O)C(=O)N[C@@H]1Cc2cn(nn2)CCCC[C@@H](C(=O)N[C@@H](Cc2ccc(O)cc2)C(=O)N[C@@H](CCC(N)=O)C(N)=O)NC(=O)[C@H](CC(C)C)NC(=O)[C@H](CC(=O)O)NC(=O)[C@H](CCC(=O)O)NC1=O"
  Unit of measurement: "%"
  helicity: 25.7

Please give helicity for each item listed below.
1. CC(=O)N[C@@H](Cc1c[nH]cn1)C(=O)N[C@@H](CCC(=O)O)C(=O)N[C@H]1CCCCn2cc(nn2)C[C@H](C(=O)N[C@@H](Cc2ccc(O)cc2)C(=O)N[C@@H](CCC(N)=O)C(N)=O)NC(=O)[C@H](CC(C)C)NC(=O)[C@H](CC(=O)O)NC(=O)[C@H](CCC(=O)O)NC1=O
2. CC(=O)N[C@@H](Cc1c[nH]cn1)C(=O)N[C@@H](CCC(=O)O)C(=O)N[C@H]1Cn2cc(nn2)CCc2cn(nn2)C[C@@H](C(=O)N[C@@H](Cc2ccc(O)cc2)C(=O)N[C@@H](CCC(N)=O)C(N)=O)NC(=O)[C@H](CC(C)C)NC(=O)[C@H](CC(=O)O)NC(=O)[C@H](CCC(=O)O)NC1=O

18.1
50.7
